- test.system: T1, human SEMA4D, full length, on CHO-K1 cells (CHO-K1 hSEMA4D) (human, UniProt Q92854 22-862)
- T1 construct: whole, on cells; also called human SEMA4D recombinant cells
- T1 sequence (looked up): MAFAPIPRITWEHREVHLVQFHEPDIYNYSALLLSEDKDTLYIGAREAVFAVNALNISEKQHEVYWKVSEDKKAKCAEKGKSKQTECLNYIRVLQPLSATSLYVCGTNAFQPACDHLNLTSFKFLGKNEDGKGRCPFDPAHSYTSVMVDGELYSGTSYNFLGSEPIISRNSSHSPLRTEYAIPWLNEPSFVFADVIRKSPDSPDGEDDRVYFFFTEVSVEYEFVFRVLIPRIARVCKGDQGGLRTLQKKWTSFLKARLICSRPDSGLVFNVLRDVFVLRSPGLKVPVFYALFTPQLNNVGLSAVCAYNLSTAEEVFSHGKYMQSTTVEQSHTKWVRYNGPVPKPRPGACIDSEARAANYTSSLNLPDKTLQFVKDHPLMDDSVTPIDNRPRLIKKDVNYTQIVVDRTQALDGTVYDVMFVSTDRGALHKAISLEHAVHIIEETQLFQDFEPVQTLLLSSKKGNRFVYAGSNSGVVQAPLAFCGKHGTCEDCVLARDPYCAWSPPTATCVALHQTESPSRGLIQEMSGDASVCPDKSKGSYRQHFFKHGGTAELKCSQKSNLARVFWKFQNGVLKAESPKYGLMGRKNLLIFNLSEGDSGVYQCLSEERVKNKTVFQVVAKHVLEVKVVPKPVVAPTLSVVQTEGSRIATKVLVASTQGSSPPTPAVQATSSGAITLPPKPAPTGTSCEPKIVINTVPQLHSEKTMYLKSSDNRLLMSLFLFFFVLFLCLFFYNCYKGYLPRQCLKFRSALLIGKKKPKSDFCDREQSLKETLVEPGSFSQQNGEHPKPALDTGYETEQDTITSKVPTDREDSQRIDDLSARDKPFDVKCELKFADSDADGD
- experiment: FACS, CHO-K1 hSEMA4D cells; Ab 0.534 nM
parameter.measured: MFI
Keep the answer to the number alone.

(Q) MFI for 31G10C5 (antibody, V domains shown, Mouse monoclonal antibody purified from hybridoma supernatant on protein A) VH: EVQLQQSGAELVRPGASVKLSCTASGFNIKDDYIHWVKQRPEQGLEWIGWIDPANGHIEYASNFQAKATITADTSSNTAYLQLSSLTSEDTAVYYCTTGDYDGFTYWGQGTLVTVST VL: QIVLTQSPAIMSASPGEKVTISCSARSSVSYMYWYQQKPGSSPKPWIYRTSNLASGVPARFSGSGSGTSYSLTISSMEAEDAATYYCQHYHTYPYTFGGGTKLEIK ?
(A) 3070

Others:
(Q) Report MFI for 31C11G2 (antibody, V domains shown, Mouse monoclonal antibody purified from hybridoma supernatant on protein A) VH: EVQLQQSGAELVRPGASVKLSCTASGFNIKDEYIHWVKQRPEQGLEWIGWIDPANGHTEYASRFQAKATITADTSSNTAYLQLSSLTSEDTAVYYCTTGDYDGFVYWGQGTLVTVST VL: QIVLTQSPAIMSASPGEKVTIFCSARSSVSYMYWYQQKPGSSPKPWIYRTSNLASGVPARFSGSGSGTSYSLTISSMEAEDAATYYCQHYHTYPYTFGGGTKLEIK please.
(A) 3140

These data points were gathered from patent US20220073608A1.
